Each record here notes measured Kd.
molecular target: JAK2 (Homo sapiens, UniProt O60674)
Sequence (O60674 840-1132 limits assumed): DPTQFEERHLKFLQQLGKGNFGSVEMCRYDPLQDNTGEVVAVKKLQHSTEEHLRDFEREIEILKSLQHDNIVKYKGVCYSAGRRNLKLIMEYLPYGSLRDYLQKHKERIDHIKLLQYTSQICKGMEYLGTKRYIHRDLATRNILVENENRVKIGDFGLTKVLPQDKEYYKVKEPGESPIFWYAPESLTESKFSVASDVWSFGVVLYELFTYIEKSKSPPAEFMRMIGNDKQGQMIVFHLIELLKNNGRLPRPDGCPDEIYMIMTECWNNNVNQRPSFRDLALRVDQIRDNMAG

MOLECULE	EXPERIMENTAL SYSTEM	Kd
Cc1cc(CNc2[nH]nc(Nc3ccc4[nH]ncc4c3)c2C(N)=O)cc(C)c1O [Compound 22]	JAK2 (Homo sapiens, UniProt O60674)	> 1000 nM
Cc1cc(CNc2[nH]nc(Nc3ccc(N4CCC(Cl)CC4)cc3)c2C(N)=O)cc(C)c1O [Compound 34]	JAK2 (Homo sapiens, UniProt O60674)	> 1000 nM
CN1CCN(c2ccc(Nc3n[nH]c(NCc4ccc(O)cc4)c3C(N)=O)cc2)CC1 [reference compound]	JAK2 (Homo sapiens, UniProt O60674)	< 50 nM
CC1CCN(C2CCN(c3ccc(Nc4n[nH]c(NCc5ccc(O)cc5)c4C(N)=O)cc3)CC2)CC1 [reference compound]	JAK2 (Homo sapiens, UniProt O60674)	< 50 nM
COc1ccc(Nc2n[nH]c(NCc3cc(C)c(O)c(C)c3)c2C(N)=O)cc1 [Compound 20]	JAK2 (Homo sapiens, UniProt O60674)	> 1000 nM
NC(=O)c1c(Nc2ccc(N3CCOCC3)cc2)n[nH]c1NCc1ccc(O)cc1 [reference compound]	JAK2 (Homo sapiens, UniProt O60674)	< 50 nM
Cc1cc(CNc2[nH]nc(Nc3ccc(N4CCOCC4)cc3)c2C(N)=O)cc(C)c1O [Compound 3]	JAK2 (Homo sapiens, UniProt O60674)	100 to 1000 nM
NC(=O)c1c(Nc2cnc(N3CCOCC3)c(Cl)c2)n[nH]c1NCc1ccc(O)cc1 [reference compound]	JAK2 (Homo sapiens, UniProt O60674)	< 50 nM
